# experiment: Half life after oral administration in rat was determined
# Type: ADME, organism-based
# setup conditions: in vivo

structure: CCCCOC(=O)NS(=O)(=O)c1sc(CC(C)C)cc1-c1ccc(Cn2ccnc2)cc1
half-life, min: 240

====

# measurement target: Angiotensin II receptor (AT-1) type-1 (Rattus norvegicus, UniProt P29089+P25095)
# experiment: Displacement of [125I]-Ang II from rat liver membrane angiotensin II type 1 (AT1) receptor

structure: CCCCOC(=O)NS(=O)(=O)c1ccc(Cc2cccc(OC)c2)cc1-c1ccc(Cn2c(CC)nc3c(C)cc(C)nc32)cc1
result modifier: =
IC50 / nM: 1.4

structure: Cc1cc(Cn2cnc3c2C[C@@H](C(=O)O)N(C(=O)C(c2ccccc2)c2ccccc2)C3)ccc1N(C)C.O=C(O)C(F)(F)F.O=C(O)C(F)(F)F
result modifier: >
IC50 / nM: 10000

structure: CCCCOC(=O)NS(=O)(=O)c1sc(CC(C)C)cc1-c1ccc(Cn2c(CC)nc3c(C)cc(C)nc32)cc1
result modifier: =
IC50 / nM: 1.1

====

# experiment: Bioavailability after oral administration in rat was determined; range is 20-30
# Type: ADME, organism-based
# setup conditions: in vivo, read-out: Bioavailabiility
endpoint label: bioavailability

structure: CCCCOC(=O)NS(=O)(=O)c1sc(CC(C)C)cc1-c1ccc(Cn2ccnc2)cc1
endpoint label: bioavailability
value observed: < 30%

====

# measurement target: Angiotensin II receptor (AT-1) type-1 (Rattus norvegicus, UniProt P29089+P25095)
# Sequence (P29089 whole entry): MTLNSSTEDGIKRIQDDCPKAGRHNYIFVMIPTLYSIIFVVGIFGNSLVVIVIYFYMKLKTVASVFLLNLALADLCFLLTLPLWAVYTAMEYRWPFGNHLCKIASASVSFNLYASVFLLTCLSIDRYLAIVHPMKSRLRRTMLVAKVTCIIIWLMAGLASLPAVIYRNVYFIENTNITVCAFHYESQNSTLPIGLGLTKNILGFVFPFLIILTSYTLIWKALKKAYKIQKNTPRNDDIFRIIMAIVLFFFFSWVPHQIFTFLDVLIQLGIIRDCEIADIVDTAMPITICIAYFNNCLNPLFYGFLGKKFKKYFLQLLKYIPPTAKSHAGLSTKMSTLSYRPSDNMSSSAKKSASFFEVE
# Sequence (P25095 whole entry): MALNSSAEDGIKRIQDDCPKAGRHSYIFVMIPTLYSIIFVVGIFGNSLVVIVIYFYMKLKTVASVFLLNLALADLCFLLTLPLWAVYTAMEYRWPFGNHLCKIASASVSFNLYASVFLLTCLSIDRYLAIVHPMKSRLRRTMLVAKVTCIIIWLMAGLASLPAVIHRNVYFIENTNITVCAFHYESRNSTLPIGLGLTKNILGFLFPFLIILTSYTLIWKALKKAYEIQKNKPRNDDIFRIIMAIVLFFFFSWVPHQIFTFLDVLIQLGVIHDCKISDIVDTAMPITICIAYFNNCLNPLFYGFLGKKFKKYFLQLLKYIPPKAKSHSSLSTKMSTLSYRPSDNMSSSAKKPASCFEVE
# experiment: Displacement of [125I]-Ang II from rat liver membrane angiotensin II type 1 (AT1) receptor

compound: CCCCOC(=O)NS(=O)(=O)c1sc(CC(C)C)cc1-c1ccc(Cn2ccnc2)cc1 [BULOXIBUTID]
Ki: > 10 µM

compound: CCCCOC(=O)NS(=O)(=O)c1sc(CC(C)C)cc1-c1ccc(CC#N)cc1
Ki: 0.1 µM

compound: CCCCOC(=O)NS(=O)(=O)c1sc(CC(C)C)cc1-c1ccc(C#N)cc1
Ki: > 10 µM

compound: CCCCOC(=O)NS(=O)(=O)c1sc(CC(C)C)cc1-c1ccc(Cn2cnc3cccnc32)cc1
Ki: > 10 µM

compound: CCCCOC(=O)NS(=O)(=O)c1sc(CC(C)C)cc1-c1ccc(Cn2c(CC)nc3c(C)cc(C)nc32)cc1
Ki: 0.0039 µM

compound: CCCCOC(=O)NS(=O)(=O)c1sc(CC(C)C)cc1-c1ccc(Cn2cnc3ccccc32)cc1
Ki: 0.5 µM

compound: CCCCOC(=O)NS(=O)(=O)c1sc(CC(C)C)cc1-c1ccc(Cn2ccnc2C)cc1
Ki: > 10 µM

compound: CCCCOC(=O)NS(=O)(=O)c1sc(CC(C)C)cc1Cc1ccc(C#N)cc1
Ki: > 10 µM

compound: CCCCOC(=O)NS(=O)(=O)c1sc(CC(C)C)cc1Cc1ccc(-n2ccnc2)cc1
Ki: > 10 µM

compound: CCCCOC(=O)NS(=O)(=O)c1sc(CC(C)C)cc1-c1ccc(Cn2c(CC)nc3ccccc32)cc1
Ki: > 10 µM
